Biological target: EPHB2 (UniProt P29323)
Sequence (P29323 whole entry, looked up): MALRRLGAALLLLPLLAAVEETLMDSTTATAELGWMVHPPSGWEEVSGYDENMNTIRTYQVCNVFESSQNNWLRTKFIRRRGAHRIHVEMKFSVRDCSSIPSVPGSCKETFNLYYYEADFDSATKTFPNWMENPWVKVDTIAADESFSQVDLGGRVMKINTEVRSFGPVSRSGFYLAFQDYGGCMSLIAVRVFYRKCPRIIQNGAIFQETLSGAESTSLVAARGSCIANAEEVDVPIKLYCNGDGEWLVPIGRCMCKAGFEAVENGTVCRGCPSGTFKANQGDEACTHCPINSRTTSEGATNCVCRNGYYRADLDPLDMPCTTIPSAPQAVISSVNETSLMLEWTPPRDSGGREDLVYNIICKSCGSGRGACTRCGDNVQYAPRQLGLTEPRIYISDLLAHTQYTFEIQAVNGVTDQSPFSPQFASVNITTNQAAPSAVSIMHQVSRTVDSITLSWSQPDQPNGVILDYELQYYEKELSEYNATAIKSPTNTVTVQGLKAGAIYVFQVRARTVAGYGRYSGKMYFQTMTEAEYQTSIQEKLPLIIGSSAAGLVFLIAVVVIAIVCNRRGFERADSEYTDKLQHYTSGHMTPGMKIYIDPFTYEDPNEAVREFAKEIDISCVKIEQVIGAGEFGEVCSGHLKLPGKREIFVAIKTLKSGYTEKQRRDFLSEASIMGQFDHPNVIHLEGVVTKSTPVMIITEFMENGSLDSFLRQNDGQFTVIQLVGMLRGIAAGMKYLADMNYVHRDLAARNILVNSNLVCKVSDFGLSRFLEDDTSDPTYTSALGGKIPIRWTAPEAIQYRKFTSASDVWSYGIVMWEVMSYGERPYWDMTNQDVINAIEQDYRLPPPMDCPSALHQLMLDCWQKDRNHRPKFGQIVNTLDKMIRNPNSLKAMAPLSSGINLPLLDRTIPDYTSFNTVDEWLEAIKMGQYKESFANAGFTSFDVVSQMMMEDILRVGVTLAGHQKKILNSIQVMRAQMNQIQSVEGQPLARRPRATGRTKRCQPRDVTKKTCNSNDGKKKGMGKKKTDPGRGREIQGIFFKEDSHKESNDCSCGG
Experiment: phosphorylation enrichment, bacterial display (enrichment ratio); higher = better substrate or ligand; peptides without Tyr show the background;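 note: 11-residue human phosphosite peptides and single-mutation variants displayed on the E. coli surface, counted by deep sequencing, each peptide's frequency after selection divided by its frequency in the unselected input library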;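 note: frequency after pTyr selection over input frequency; kinase dosed for 20-30% of maximal phosphorylation in three min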
The threshold is inclusive: phosphorylation enrichment of exactly 0.5 counts as satisfied; values below receive not satisfied.

{"Residues": "NKPTVCGVSPN [ABL1_Y226_Y226C]", "Tested System": "EPHB2 (UniProt P29323)", "Assigned Label": "satisfied"}
{"Residues": "EIELAYRRRPP [GRIN2B_Y1109]", "Tested System": "EPHB2 (UniProt P29323)", "Assigned Label": "not satisfied"}
{"Residues": "RPGSGYTNIMQ [PKLR_Y564_R569Q]", "Tested System": "EPHB2 (UniProt P29323)", "Assigned Label": "not satisfied"}
{"Residues": "SRNKPYISWPS [CDC42BPB_Y1638]", "Tested System": "EPHB2 (UniProt P29323)", "Assigned Label": "not satisfied"}
{"Residues": "THLAPYSDELR [APOA1_Y190]", "Tested System": "EPHB2 (UniProt P29323)", "Assigned Label": "satisfied"}
{"Residues": "KYVVVYFRETD [IL17RB_Y447_I451T]", "Tested System": "EPHB2 (UniProt P29323)", "Assigned Label": "satisfied"}
{"Residues": "NTGGYYDLYGG [PTPN11_Y63_D61G]", "Tested System": "EPHB2 (UniProt P29323)", "Assigned Label": "satisfied"}
{"Residues": "MKKKIYAMGGG [GAN_Y424]", "Tested System": "EPHB2 (UniProt P29323)", "Assigned Label": "not satisfied"}
{"Residues": "VGTKRYMAPEV [ACVRL1_Y375]", "Tested System": "EPHB2 (UniProt P29323)", "Assigned Label": "not satisfied"}
{"Residues": "DEEPPDRGPFC [SASH1_Y551_Y551D]", "Tested System": "EPHB2 (UniProt P29323)", "Assigned Label": "satisfied"}
{"Residues": "GISDEYHVIQH [GCDH_Y398_R402Q]", "Tested System": "EPHB2 (UniProt P29323)", "Assigned Label": "satisfied"}
{"Residues": "DFFDLYGGEKF [PTPN11_Y66_YF]", "Tested System": "EPHB2 (UniProt P29323)", "Assigned Label": "satisfied"}
{"Residues": "RESFKYFPSSL [CXXC1_Y218_YF]", "Tested System": "EPHB2 (UniProt P29323)", "Assigned Label": "not satisfied"}
{"Residues": "HITQVYGFYDE [PPP2CA_Y127_Q122H]", "Tested System": "EPHB2 (UniProt P29323)", "Assigned Label": "satisfied"}
{"Residues": "HFIKLYEEKTG [PARP1_Y618_M615I]", "Tested System": "EPHB2 (UniProt P29323)", "Assigned Label": "satisfied"}
{"Residues": "FEEDPYLVVNP [MCM6_Y810_YF]", "Tested System": "EPHB2 (UniProt P29323)", "Assigned Label": "satisfied"}
{"Residues": "KEEEDYKEENN [BMS1_Y651]", "Tested System": "EPHB2 (UniProt P29323)", "Assigned Label": "satisfied"}
{"Residues": "NLFIEYPTGSG [IRF2BPL_Y423_K418N]", "Tested System": "EPHB2 (UniProt P29323)", "Assigned Label": "satisfied"}
{"Residues": "QWLEQYTQAIE [LSP1_Y234]", "Tested System": "EPHB2 (UniProt P29323)", "Assigned Label": "satisfied"}
{"Residues": "EQKKFYNAMKN [SCN5A_Y1495_K1500N_YF]", "Tested System": "EPHB2 (UniProt P29323)", "Assigned Label": "not satisfied"}
